system: A549 cancer cells; assay: MTT cell viability assay, dark or photoactivated; assay type: cell-based, human; conditions: A549; 4 h incubation, kept in the dark; viability after 48 h, MTT; read-out: IC50 dark
Quantity Kind: pIC50
One number for each entry, as −log10 of the molar value.

Sample answers from the record:
Ask: Given the compound Cc1c(C)c(C)[c-](C)c1C.F[B-](F)(F)F.c1ccc(Cn2cc[n+]([Ir]3[c]4cccc5c6nc7cc8ccccc8cc7nc6c6ccc[n+]3c6c45)c2)cc1 [complex 8, [(η^5-C5Me5)Ir(bzIm)(pbpn)]BF4] , what is its reported pIC50?
Reply: 6.82

Ask: // query: c1cn(CCN2CCCCC2)cn1 [(N-ethylpiperidyl)imidazole, reference compound]
Reply: 4.17

Here is the next item to consider.
Ask: Given the compound Cc1c(C)c(C)[c-](C)c1C.[Cl][Ir]1[c]2cccc3c4nc5ccccc5nc4c4ccc[n+]1c4c23 [complex 1, [(η^5-C5Me5)IrCl(pbpz)]] , what is its reported pIC50?
Reply: 5.10

====

test system: A549 cancer cells; assay: MTT cell viability assay, dark or photoactivated; type: cell-based, human; details: Homo sapiens, A549, A549; 4 h incubation, kept in the dark; viability after 48 h, MTT; read-out: IC50 dark
pIC50: −log10 of the molar value.
Quantity Kind: pIC50

Ask: Lab note: need pIC50 for c1cn(CCN2CCCCC2)cn1 [(N-ethylpiperidyl)imidazole, reference compound] on A549 cancer cells, anyone have it?
Reply: < 4.30

====

Record form. Attribute: pIC50. Fill in for each entry.
tested on: A549 cancer cells; assay: MTT cell viability assay, dark or photoactivated; type: cell-based, human; details: A549; 4 h incubation, blue light 460 nm 1 h (24.1 J cm^–2); 48 h, MTT; read-out: IC50 blue light
Numbers only, as −log10 of the molar value.

Dear colleague, could you send me pIC50 for each of the items below? Thanks.
1. Cc1c(C)c(C)[c-](C)c1C.F[B-](F)(F)F.c1ccc(Cn2cc[n+]([Ir]3[c]4cccc5c6nc7ccccc7nc6c6ccc[n+]3c6c45)c2)cc1 [complex 7, [(η^5-C5Me5)Ir(bzIm)(pbpz)]BF4]
2. Cc1c(C)c(C)[c-](C)c1C.F[B-](F)(F)F.c1ccc2cc3nc4c5ccc[n+]6c5c5[c](cccc5c4nc3cc2c1)[Ir]6[n+]1cc[nH]c1 [complex 4, [(η^5-C5Me5)Ir(Im)(pbpn)]BF4]
3. Cc1c(C)c(C)[c-](C)c1C.F[B-](F)(F)F.c1ccc2cc3nc4c5ccc[n+]6c5c5[c](cccc5c4nc3cc2c1)[Ir]6[n+]1ccn(CCN2CCCCC2)c1 [complex 6, [(η^5-C5Me5) Ir(Imepip)(pbpn)]BF4]
4. Cc1c(C)c(C)[c-](C)c1C.F[B-](F)(F)F.c1ccc2nc3c4ccc[n+]5c4c4[c](cccc4c3nc2c1)[Ir]5[n+]1cc[nH]c1 [complex 3, [(η^5-C5Me5)Ir(Im)(pbpz)]BF4]
5. Cc1c(C)c(C)[c-](C)c1C.F[B-](F)(F)F.c1ccc(Cn2cc[n+]([Ir]3[c]4cccc5c6nc7cc8ccccc8cc7nc6c6ccc[n+]3c6c45)c2)cc1 [complex 8, [(η^5-C5Me5)Ir(bzIm)(pbpn)]BF4]

Reply:
1: 6.19; 2: 8.49; 3: 8.82; 4: 5.92; 5: 9.70

Dear colleague, could you send me pIC50 for each of the items below? Thanks.
1. Cc1c(C)c(C)[c-](C)c1C.F[B-](F)(F)F.c1ccc2nc3c4ccc[n+]5c4c4[c](cccc4c3nc2c1)[Ir]5[n+]1ccn(CCN2CCCCC2)c1 [complex 5, [(η^5-C5Me5)Ir(Imepip)(pbpz)]BF4]
2. Cc1c(C)c(C)[c-](C)c1C.[Cl][Ir]1[c]2cccc3c4nc5ccccc5nc4c4ccc[n+]1c4c23 [complex 1, [(η^5-C5Me5)IrCl(pbpz)]]

Reply:
6.41
5.54

====

assay: 1O2 quantum yield determination with DPBF; conditions: acetonitrile; λir = 470 nm
Record form. Attribute: Slope (S) of ‐ln(normalized Abs) vs time, photooxidation of DPBF. Fill in for each entry.
One number for each entry.

Sample answers from the record:
Ask: Given the compound Cc1c(C)c(C)[c-](C)c1C.F[B-](F)(F)F.c1ccc2cc3nc4c5ccc[n+]6c5c5[c](cccc5c4nc3cc2c1)[Ir]6[n+]1cc[nH]c1 [complex 4, [(η^5-C5Me5)Ir(Im)(pbpn)]BF4] , what is its reported Slope (S) of ‐ln(normalized Abs) vs time, photooxidation of DPBF?
Reply: 0.0890

Ask: // query: Cc1c(C)c(C)[c-](C)c1C.F[B-](F)(F)F.c1ccc2cc3nc4c5ccc[n+]6c5c5[c](cccc5c4nc3cc2c1)[Ir]6[n+]1ccn(CCN2CCCCC2)c1 [complex 6, [(η^5-C5Me5) Ir(Imepip)(pbpn)]BF4]
Reply: 0.0657

Ask: // query: [Cl][Ru][Cl].c1ccc(-c2ccccn2)nc1.c1ccc(-c2ccccn2)nc1.c1ccc(-c2ccccn2)nc1 [[Ru(bpy)3]Cl2, reference compound]
Reply: 0.0535

Here is the next item to consider.
Ask: Given the compound Cc1c(C)c(C)[c-](C)c1C.F[B-](F)(F)F.c1ccc(Cn2cc[n+]([Ir]3[c]4cccc5c6nc7cc8ccccc8cc7nc6c6ccc[n+]3c6c45)c2)cc1 [complex 8, [(η^5-C5Me5)Ir(bzIm)(pbpn)]BF4] , what is its reported Slope (S) of ‐ln(normalized Abs) vs time, photooxidation of DPBF?
Reply: 0.0771

====

system: porcine red blood cells (RBC); assay: Hemolytic activity (hemoglobin release); assay type: cell-based; conditions: 1 μM, dark, 1 hour
Quantity Kind: Hemolytic activity (%)
One number for each entry, in %.

Sample answers from the record:
Ask: Given the compound Cc1c(C)c(C)[c-](C)c1C.F[B-](F)(F)F.c1ccc2cc3nc4c5ccc[n+]6c5c5[c](cccc5c4nc3cc2c1)[Ir]6[n+]1cc[nH]c1 [complex 4, [(η^5-C5Me5)Ir(Im)(pbpn)]BF4] , what is its reported Hemolytic activity?
Reply: 0

Ask: // query: Cc1c(C)c(C)[c-](C)c1C.F[B-](F)(F)F.c1ccc(Cn2cc[n+]([Ir]3[c]4cccc5c6nc7cc8ccccc8cc7nc6c6ccc[n+]3c6c45)c2)cc1 [complex 8, [(η^5-C5Me5)Ir(bzIm)(pbpn)]BF4]
Reply: 0.2

Ask: // query: Cc1c(C)c(C)[c-](C)c1C.F[B-](F)(F)F.c1ccc2cc3nc4c5ccc[n+]6c5c5[c](cccc5c4nc3cc2c1)[Ir]6[n+]1ccn(CCN2CCCCC2)c1 [complex 6, [(η^5-C5Me5) Ir(Imepip)(pbpn)]BF4]
Reply: 0

Continuing:
Ask: Given the compound N.N.[Cl][Pt][Cl] [Cisplatin, reference compound] , what is its reported Hemolytic activity?
Reply: 0

Where these numbers come from: paper PMC10859961
